- assayRemarks: Cytotoxicity against human Bel7402 cells after 4 days by MTT assay
- Assay type: functional, cell-based
- conditionSummary: Bel-7402, 96 h
valueType: IC50 (µM)

compound	inequalitySign	numericResult
O=Cc1ccc(O)c(O)c1	=	3.7
CC(=O)/C=C/c1ccc(O)c(O)c1	=	4.7
C=C(C)C(=O)CC(O)[C@@H](C)[C@H]1CC[C@@]2(C)C3=C(CC[C@]12C)[C@@]1(C)CC[C@H](O)C(C)(C)[C@@H]1CC3 (some centres undefined)	>	10
O=c1[nH]cc(F)c(=O)[nH]1	=	5.5

----------
- assayRemarks: Hepatoprotective activity against D-galactosamine-induced toxicity in rat WB-F344 cells assessed as cell survival at 10 uM preincubated for 1 hr followed by D-galactosamine challenge measured after 24 hrs by MTT assay relative to normal cell
- Type: functional
- conditionSummary: read-out: Survival
Quick list: viability at 10 µM per entry.
valueType: viability at 10 µM (%)

compound	numericResult
CC(C)=CCC(O)[C@@H](C)[C@H]1CC[C@@]2(C)C3=C(C(=O)C[C@]12C)[C@@]1(C)CC[C@H](O)C(C)(C)[C@@H]1CC3 (stereo partly specified)	94
COC(=O)c1cc(OC)c2c(c1-c1c(CO)cc(OC)c3c1OCO3)OCO2 [BICYCLOL]	80
CC(C)=C(C)[C@@H]1C[C@H]([C@H]2CC[C@@]3(C)C4=C(CC[C@]23C)[C@@]2(C)CC[C@H](O)C(C)(C)[C@@H]2CC4)C(=O)O1	91
CC(C)[C@@H](C)/C=C/[C@@H](C)[C@H]1CC[C@H]2C3=CC[C@H]4C[C@@H](O)CC[C@]4(C)[C@H]3CC[C@]12C	82
COc1cc(C(=O)O)ccc1O [VANILLIC ACID]	86
CC(C)=CCC[C@@H](C(=O)O)[C@H]1CC[C@@]2(C)C3=C(CC[C@]12C)[C@@]1(C)CC[C@H](O)C(C)(C)[C@@H]1CC3 [TRAMETENOLIC ACID]	92
CC(C)=CC[C@@H](O)[C@@H](C)[C@H]1CC[C@@]2(C)C3=C(CC[C@]12C)[C@@]1(C)CC[C@H](O)C(C)(C)[C@@H]1CC3 [INOTODIOL]	86
CC[C@H](CC[C@@H](C)[C@H]1CC[C@H]2[C@@H]3CCC4=C[C@@H](O)CC[C@]4(C)[C@H]3CC[C@]12C)C(C)C [LAWSARITOL]	81
CC(C)[C@@H](C)CC[C@@H](C)[C@H]1CC[C@H]2C3=CCC4C[C@@H](O)CC[C@]4(C)[C@H]3CC[C@]12C (stereo partly specified)	80
CC(C)=CCC[C@@H](C)[C@H]1CC[C@@]2(C)C3=C(CC[C@]12C)[C@@]1(C)CC[C@H](O)C(C)(C)[C@@H]1CC3 [LANOSTEROL]	92
CC(C)c1ccc2c(c1)C(=O)C[C@H]1C(C)(C)CCC[C@@]21C(=O)O	79
